- tested.on: Endothelin receptor type B (Homo sapiens)
- Sequence (P24530 whole entry): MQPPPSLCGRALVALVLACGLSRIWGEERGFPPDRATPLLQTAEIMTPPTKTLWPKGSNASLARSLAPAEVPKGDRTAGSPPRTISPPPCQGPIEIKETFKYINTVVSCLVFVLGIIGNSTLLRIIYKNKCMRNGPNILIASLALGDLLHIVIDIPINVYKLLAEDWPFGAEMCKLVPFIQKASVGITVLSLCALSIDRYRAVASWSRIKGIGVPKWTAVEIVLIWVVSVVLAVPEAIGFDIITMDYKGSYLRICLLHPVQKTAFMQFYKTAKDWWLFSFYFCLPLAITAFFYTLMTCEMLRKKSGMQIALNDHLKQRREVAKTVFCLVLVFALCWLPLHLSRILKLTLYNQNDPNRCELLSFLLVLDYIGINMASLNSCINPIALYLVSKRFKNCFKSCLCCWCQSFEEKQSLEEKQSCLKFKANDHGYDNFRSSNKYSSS
- assay.info: Binding affinity against human cloned Endothelin B receptor expressed in CHO-K1 cells
- Type: cell-based
pIC50: −log10 of the molar value.
assay.endpoint: pIC50

# annotated cases, reported pIC50 shown
INSERT INTO assay_data (molecule, assay_endpoint, meas_value) VALUES
  ('O=C1OC(O)(c2ccc(Cl)cc2)C(Cc2ccccc2)=C1c1ccc2c(c1)OCO2 (stereo unspecified)', 'pIC50', 4.57),
  ('COc1ccc(C2(O)OC(=O)C(c3ccc4c(c3)OCO4)=C2Cc2ccc(N(C)C)cc2)cc1 (stereo unspecified)', 'pIC50', 5.74),
  ('COc1ccc(C2(O)OC(=O)C(c3cccc(OC)c3)=C2Cc2ccccc2)cc1 (stereo unspecified)', 'pIC50', 4.92),
  ('COc1ccc(CC2=C(c3ccc(OC)cc3)C(=O)OC2(O)c2ccc(OC)cc2)cc1 (stereo unspecified)', 'pIC50', 5.05),
  ('COc1ccc(C2(O)OC(=O)C(c3cc(OC)c4c(c3)OCO4)=C2Cc2cc(OC)c(OC)c(OC)c2)cc1C (stereo unspecified)', 'pIC50', 6.74),
  ('COc1ccc(C2(O)OC(=O)C(c3ccc4c(c3)OCO4)=C2Cc2ccc(OC)c(OC)c2OC)cc1 (stereo unspecified)', 'pIC50', 5.70);

P. CC(C)Oc1ccc(C2(O)OC(=O)C(c3ccc4c(c3)OCO4)=C2Cc2ccccc2)cc1 (stereo unspecified)
Q. COc1ccc(C2(O)OC(=O)C(c3ccc4c(c3)OCO4)=C2CC2CCCC2)cc1 (stereo unspecified)
stdin: Field: lower pIC50 | Options: P / Q Answer format: the label of the selected item.
stdout: P
